assayed-system: Dickkopf-related protein 1 (Homo sapiens) (UniProt O94907)
Sequence (O94907 whole entry, looked up): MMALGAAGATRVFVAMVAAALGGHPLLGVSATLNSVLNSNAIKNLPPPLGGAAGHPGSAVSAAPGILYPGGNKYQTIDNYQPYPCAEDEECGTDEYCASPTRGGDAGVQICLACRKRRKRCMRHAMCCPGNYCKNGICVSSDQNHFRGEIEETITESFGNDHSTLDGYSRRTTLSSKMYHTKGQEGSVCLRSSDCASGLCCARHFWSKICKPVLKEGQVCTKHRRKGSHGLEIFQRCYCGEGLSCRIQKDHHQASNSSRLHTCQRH
experiment-notes: DKK1 binders on small-molecule microarrays, primary screen, biochemical, small-molecule microarray, 635 nm fluorescence scan (AID 1106);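 also: score merges emission near 667 nm with signal to noise over three replicate slides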
condition-description: DKK1 binding, higher = more signal
Hi there, I'd appreciate the recorded composite z-score for every entry that follows.

Previously resolved entries follow.
composite z-score reported for this compound `NC(=O)NCC#Cc1ccc2c(c1)[C@]1(C(=O)N2)[C@H](C(=O)O)[C@H]2C(=O)O[C@H](c3ccccc3)[C@H](c3ccccc3)N2[C@@H]1c1ccc(OCCO)cc1` : 0.158

composite z-score reported for this compound `O=C(NCc1ccccc1)[C@@H]1c2ccccc2C(=O)N(Cc2ccccc2C(F)(F)F)[C@H]1c1ccc(CO)cc1` : -1.09

composite z-score reported for this compound `CCOC(=O)C1=CC[C@@H](c2ccc(OCc3ccccc3)c(OC)c2)N(S(=O)(=O)c2ccc(C)cc2)[C@H]1c1ccc(SC)cc1` : 0.174

Next compound, composite z-score to be filled in.
composite z-score reported for this compound CCOc1cc(C(O)C2C=CC3C(=O)N(C)C(=O)C3N2Nc2ccccc2)ccc1O (centres undefined) : -0.329

---

experiment-notes: inhibitors of hydroxyurea-induced Chk1 phosphorylation, primary screen, imaging, HeLa, phospho-Chk1 antibody, percent positive cells (AID 1186)
condition-description: hydroxyurea-induced phospho-Chk1 immunofluorescence imaging, higher = more signal
Hi there, I'd appreciate the recorded z-score for every entry that follows.
Give bare numbers.

Previously resolved entries follow.
z-score reported for this compound Cc1cc(C)c(C(O)C2C=CC3C(=O)NC(=O)C3N2Nc2ccc(Cl)cc2Cl)c(C)c1 (centres undefined) : 0.73

z-score reported for this compound CC(CO)N1C(=O)[C@@H]2[C@H]3C(=O)OCC=C[C@H]3OC23C=CCN(C(C)(C)C)C(=O)[C@@H]13 (some centres undefined) : 0.0116

z-score reported for this compound `C=C(COC)/C(=C/C[C@H](OC(C)=O)c1ccc(OCCO)cc1)c1cc(C(=O)OC)ccc1OC` : -0.285

Next compound, z-score to be filled in.
z-score reported for this compound C=CCC(OC(C)=O)[C@@H]1[C@@H](N(Cc2ccc(-c3ccccc3)cc2)C(=O)Cc2ccc(F)cc2)c2cc(OCCCO)ccc2N1C(=O)Cc1ccc(OC)cc1 (some centres undefined) : -0.245

---

experiment-notes: adipocyte viability effects, profiling panel, cell-based, 3T3-L1 adipocytes, calcein-AM fluorescence, 48 h, basal (AID 1163); also: test concentration not given here
condition-description: 3T3-L1 adipocytes viability, higher = more signal
observable: z-score
One number for each entry.

Previously resolved entries follow.
z-score reported for this compound `COCCCNC(=O)[C@@]1(Cc2ccccc2N=[N+]=[N-])COC(c2ccc(OCCCO)cc2)=N1` : -0.707

z-score reported for this compound `CCOC(=O)c1ccc(NC(=O)O[C@H]2[C@H](OC(=O)Nc3ccc4c(c3)OCO4)[C@H](OC(=O)Nc3ccc4c(c3)OCO4)[C@@H](OC)O[C@@H]2CO)cc1` : 0.529

Look at each compound and report its z-score.
1. Cc1ccc(S[C@]2(C(=O)O)CC(=O)N(Cc3ccccc3Cl)[C@@H]2c2ccc(CO)cc2I)cc1
2. Cc1ccc(S[C@]2(C(=O)O)CC(=O)N(C3Cc4ccccc4C3)[C@@H]2c2ccc(CO)cc2)cc1
3. CCOC(=O)C1=CC[C@@H](c2ccc(OCc3ccccc3)c(OC)c2)N(S(=O)(=O)c2ccc(C)cc2)[C@H]1c1ccc(SC)cc1
4. Cc1cc(C)c(C(O)C2C=CC3C(=O)NC(=O)C3N2Nc2ccc(Cl)cc2Cl)c(C)c1 (configuration not stated)

Given back:
[-0.551, 0.729, 0.211, -0.22]

z-score reported for this compound `COc1ccc(CCN2C(=O)[C@@]3(Cc4ccccc42)c2ccccc2C(=O)N(Cc2ccccc2OC)[C@H]3c2ccc(CO)cc2)cc1` : 0.677

---

experiment-notes: basal RPMI8226 mitochondrial membrane potential changes, profiling panel, cell-based, JC-1 fluorescence, 24 h, 100 nL compound (AID 1169); also: test concentration not given here
condition-description: RPMI8226 myeloma, JC-1 mitochondrial potential fluorescence, higher = more signal
Hi there, I'd appreciate the recorded z-score for every entry that follows.
Answers are plain numbers.

z-score reported for this compound NC(=O)N1C(=O)C2C(C1=O)C1C=C(CCCO)C2C(c2cccs2)N1Cc1cccc(OC(F)(F)F)c1 (configuration not stated) : 0.146

Look at each compound and report its z-score.
1. COC1OC[C@]2(C)[C@H]3C4=C(CN2C(=O)OC(C)(C)C)[C@H](C)C(CO)C(CO)C4CC[C@@H]13 (some centres not stated)
2. Cc1ccc(S[C@]2(C(=O)NCC(F)(F)F)CC(=O)N(Cc3ccccc3C(F)(F)F)[C@@H]2c2ccc(CO)cc2I)cc1
3. O=C(CS)NCCCCCNC(=O)[C@@H]1C[C@@H]2C(=O)N3CCC[C@H]3C(=O)N2[C@@H]1c1cccc(OCCO)c1
4. O=C(NCc1ccccc1)[C@@H]1c2ccccc2C(=O)N(Cc2ccccc2C(F)(F)F)[C@H]1c1ccc(CO)cc1
5. [N-]=[N+]=NCc1ccccc1[C@H]1OC(c2ccc(OCCCO)cc2)=N[C@@]1(CCS(=O)(=O)c1ccccc1)C(=O)N1CCCCC1
6. O=C1c2ccccc2[C@](Cc2ccccc2I)(C(=O)NCC(F)(F)F)[C@H](c2ccc(CO)cc2)N1C1CCCCC1

Given back:
1. 0.287
2. -0.597
3. -0.00798
4. 0.744
5. -1.11
6. -0.434

---

experiment-notes: inhibitors of hydroxyurea-induced Chk1 phosphorylation, primary screen, imaging, HeLa, phospho-Chk1 antibody, percent positive cells (AID 1186)
condition-description: hydroxyurea-induced phospho-Chk1 immunofluorescence imaging, higher = more signal
Hi there, I'd appreciate the recorded z-score for every entry that follows.
Answers are plain numbers.

Previously resolved entries follow.
z-score reported for this compound `CCC[C@@H]1C[C@@]1(CCC)[C@@H](NC(=O)OCc1ccccc1)c1ccc(-c2ccccc2)cc1` : 0.977

z-score reported for this compound `COCCOC(=O)N1C(=O)[C@@]2(c3cc(C#CCC(C(=O)OC)C(=O)OC)ccc31)[C@H](C(=O)N1CCc3cc(OC)c(OC)cc3C1)[C@H]1C(=O)O[C@H](c3ccccc3)[C@H](c3ccccc3)N1[C@@H]2c1ccc(OCCO)cc1` : -0.0997

z-score reported for this compound `CC(C)(C)OC(=O)CC[C@@]1(C(=O)NCc2ccccc2)N=C(c2ccc(OCCCO)cc2)O[C@@H]1c1ccccc1N=[N+]=[N-]` : -0.347

Next compound, z-score to be filled in.
z-score reported for this compound `COC(=O)c1c(CC[C@@H](CO)NC(=O)N2CCC[C@H]2Cn2cc(Cc3ccccc3)nn2)oc(C(C)=O)c1C(=O)OC` : -0.358

---

assayed-system: Follistatin-related protein 3 (Homo sapiens) (UniProt O95633)
Sequence (O95633 whole entry, looked up): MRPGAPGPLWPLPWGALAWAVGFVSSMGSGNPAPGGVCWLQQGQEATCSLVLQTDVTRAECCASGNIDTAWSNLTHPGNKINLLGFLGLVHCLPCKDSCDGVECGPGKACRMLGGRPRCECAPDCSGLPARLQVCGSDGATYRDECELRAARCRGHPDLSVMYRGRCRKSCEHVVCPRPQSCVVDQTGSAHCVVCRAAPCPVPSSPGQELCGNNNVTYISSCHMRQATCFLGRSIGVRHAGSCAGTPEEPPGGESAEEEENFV
experiment-notes: FSTL3 binders on small-molecule microarrays, primary screen, biochemical, small-molecule microarray, 635 nm fluorescence (AID 1105);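 also: score merges emission near 667 nm and signal to noise per printed spot across three slides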
condition-description: FSTL3 binding, higher = more signal
Quick rule for you: composite z-score at 0.1 or higher means rule met, lower means rule not met.

# count of solved cases: 3
Asked: Is the recorded value of composite z-score equal to or greater than 0.1 for this compound? `COC(=O)Cn1c(C(=O)N(C)C)cc2c1C[C@H]1CN(C(=O)c3ccccc3)[C@@](Cc3ccc(F)cc3)(C(=O)OC)[C@@H]21`
Given back: rule met

Asked: Is the recorded value of composite z-score equal to or greater than 0.1 for this compound? `COCCOC(=O)N1C(=O)[C@@]2(c3cc(C#CC4=CCCCC4)ccc31)[C@H](C(=O)N1CCCCCCC1)[C@H]1C(=O)O[C@H](c3ccccc3)[C@H](c3ccccc3)N1[C@@H]2c1ccc(O)cc1`
Given back: rule met

Asked: Is the recorded value of composite z-score equal to or greater than 0.1 for this compound? `CCCC[C@@H]1C[C@H]1[C@@H](NC(=O)Cc1ccccc1)c1ccc(-c2ccccc2)cc1`
Given back: rule met

Continuing:
Asked: Is the recorded value of composite z-score equal to or greater than 0.1 for this compound? `O=C1O[C@H](c2ccccc2)[C@H](c2ccccc2)N2[C@H]1[C@@H](C(=O)Nc1nc3ccccc3s1)[C@]1(C(=O)Nc3ccc(C#CC4(O)CCCCCC4)cc31)[C@H]2c1ccccc1OCCO`
Given back: rule met

---

experiment-notes: P. aeruginosa biofilm formation inhibitors, primary screen, strain PAO1, LB-PBS medium, absorbance 600 nm (AID 1176); also: test concentration not given here
condition-description: P. aeruginosa PAO1 growth/biofilm, A600, 12 h; higher = more signal
Hi there, I'd appreciate the recorded z-score for every entry that follows.
Give bare numbers.

Previously resolved entries follow.
z-score reported for this compound `CC(C)OC(=O)C=C1C[C@@H](c2ccc(C(F)(F)F)cc2)O[C@@H](c2ccc(C(F)(F)F)cc2)O1` : 0.257

z-score reported for this compound `CCOC(=O)c1ccc(NC(=O)O[C@H]2[C@H](OC(=O)Nc3ccc4c(c3)OCO4)[C@@H](OC(=O)Nc3ccc4c(c3)OCO4)[C@@H](OC)O[C@@H]2CO)cc1` : 2.08

z-score reported for this compound `O=C(NCC(F)(F)F)[C@@H]1c2ccccc2C(=O)N(Cc2ccc(OC(F)(F)F)cc2)[C@H]1c1ccc(CO)cc1` : -0.177

z-score reported for this compound `NCCCCCNC(=O)[C@@H]1C[C@@H]2C(=O)NCC(=O)N2[C@@H]1c1cccc(OCCO)c1` : 1.29

z-score reported for this compound CC(C)(C)N1CC=CC23O[C@@H]4C=CCOC(=O)[C@@H]4[C@H]2C(=O)N(CCCCCCO)[C@@H]3C1=O (stereo not given in full) : -0.608

z-score reported for this compound `COC(=O)[C@@]1(Cc2ccc(F)cc2)[C@H]2c3cc(C(=O)N(C)C)n(CCc4ccc(O)c(OC)c4)c3C[C@H]2CN1C(=O)c1ccccc1` : -0.263

z-score reported for this compound Cc1ccccc1C(O)C1C=CC2C(=O)N(C)C(=O)C2N1N(c1ccccc1)c1ccccc1 (stereo not given) : 0.53

z-score reported for this compound `CCCC[C@@H]1C[C@H]1[C@@H](NC(=O)c1cccs1)c1ccc(C(F)(F)F)cc1` : 0.771

z-score reported for this compound `C=CCOC(=O)[C@H]1[C@@H]2C(=O)O[C@@H](c3ccccc3)[C@@H](c3ccccc3)N2[C@@H](c2ccc(OCCOC(=O)[C@H]3C[C@H]4C(=O)N[C@@H](CC(C)C)C(=O)N4[C@H]3c3cccc(OCCO)c3)cc2)[C@]12C(=O)Nc1ccc(I)cc12` : 2.9

z-score reported for this compound COC1OC[C@]2(C)[C@H]3C4=C(CN2C(=O)OC(C)(C)C)[C@H](C)C(CO)C(CO)C4CC[C@@H]13 (stereo not given in full) : 0.523

Look at each compound and report its z-score.
1. COc1ccc(CCNC(=O)[C@@H]2c3ccccc3C(=O)N(Cc3cc(C(F)(F)F)cc(C(F)(F)F)c3)[C@H]2c2ccc(CO)cc2)cc1
2. CCCCC(=C=CC[C@@H](O)c1ccccc1OCCO)C[C@@H](O)COCc1ccccc1
3. C=CCC(OC(C)=O)[C@@H]1[C@@H](N(Cc2cccc3ccccc23)C(=O)c2cccc3ccccc23)c2cc(OCCCO)ccc2N1C(=O)c1ccc(-c2ccccc2)cc1 (stereo not given in full)
4. CC(c1ccccc1)C(O)C1C=CC2C(=O)N(c3ccccc3)C(=O)C2N1Nc1ccc([N+](=O)[O-])cc1 (stereo not given)
5. COC(=O)c1cn(C[C@@H](Cc2ccccc2)NC(=O)N[C@H](CO)CCc2oc(C(C)=O)c(C(=O)OC)c2C(=O)OC)nn1
6. CCCCCCc1nc(-c2cc(C)c(OC)c(C)c2)c(C)c2c1[Si](C(C)C)(C(C)C)OC2
7. C=CCC(OC(C)=O)[C@@H]1[C@@H](N(Cc2ccc(-c3cccc(C(F)(F)F)c3)o2)C(=O)c2ccc(C)cc2)c2cc(OCCCO)ccc2N1C(=O)c1ccc2ccccc2c1 (stereo not given in full)

Given back:
1. 0.279
2. 0.0478
3. -0.309
4. 0.449
5. -0.227
6. 0.374
7. -0.124

Look at each compound and report its z-score.
1. CN1C(=O)C2C=CC(C(O)c3ccccn3)N(N(c3ccccc3)c3ccccc3)C2C1=O (stereo not given)
2. NC(=O)NCC#Cc1ccc2c(c1)[C@]1(C(=O)N2)[C@H](C(=O)O)[C@H]2C(=O)O[C@H](c3ccccc3)[C@H](c3ccccc3)N2[C@@H]1c1ccc(OCCO)cc1
3. O=C1O[C@@H](c2ccccc2)[C@@H](c2ccccc2)N2[C@@H](c3ccc(OCCO)cc3)[C@]3(C(=O)Nc4ccccc43)[C@@H](C(=O)O)[C@H]12
4. C=C[C@@H](OC)[C@H](OC(=O)Nc1ccc(SC)cc1)c1ccc(O)c(F)c1
5. COCCOC(=O)N1C(=O)[C@@]2(c3cc(C#CCCO)ccc31)[C@H](C(=O)Nc1nc3ccccc3s1)[C@H]1C(=O)O[C@H](c3ccccc3)[C@H](c3ccccc3)N1[C@@H]2c1ccccc1OCCO
6. CN1C(=O)C2C=CC(C(O)COCc3ccccc3)N(N(c3ccccc3)c3ccccc3)C2C1=O (stereo not given)

Given back:
1. 1.01
2. 0.545
3. 0.449
4. 1.22
5. 1.7
6. 1.04

Look at each compound and report its z-score.
1. O=c1n(-c2ccccc2)c(=O)n2n1CC(COc1ccccc1)=C([C@H](O)CCc1ccccc1)[C@@H]2CO
2. O=C1NC(=O)C2C1C=CC(C(O)c1cccc3ccccc13)N2Nc1ccc(Cl)cc1Cl (stereo not given)
3. CC(C)Cc1ccc(CN2CC[C@@H](NC(=O)Nc3ccccc3)C2)cc1

Given back:
1: -0.0126; 2: 0.875; 3: 0.294

Attribution: PubChem BioAssay
